# System: Bone
# Experiment Description: Biodistribution in ICR mouse bone at 925 KBq, iv after 2 mins by gamma counting
# Type: ADME, organism-based, Bone element
# Particulars: in vivo
Result Type: Drug uptake (% ID/g)
Answer in % ID/g, number only, no unit symbol.

Example results:
                                   compound  result_unit  meas_value
0  CNc1ccc(/C=C/c2ccc(OCCOCCOCC[18F])nc2)cc1 [FLORBETAPIR F 18]       % ID/g        1.43
1  CNc1ccc(/C=C/c2ccc(OCCOCCOCCOCCOCCOCC(COCCOCCOCCOCCOCCOc3ccc(/C=C/c4ccc(NC)cc4)cn3)OCC[18F])nc2)cc1       % ID/g        1.64
2  CNc1ccc(/C=C/c2ccc(OCCOCCOCCOCCOCC(COCCOCCOCCOCCOc3ccc(/C=C/c4ccc(NC)cc4)cn3)OCC[18F])nc2)cc1       % ID/g         1.3

(Q) What does the data say about its Drug uptake? Entry: CNc1ccc(/C=C/c2ccc(OCCOCCOCCOCCOCCOCCOCC(COCCOCCOCCOCCOCCOCCOc3ccc(/C=C/c4ccc(NC)cc4)cn3)OCC[18F])nc2)cc1
(A) 1.06

* * *

# Tested on: Muscle tissue
# Experiment Description: Biodistribution in ICR mouse muscle at 925 KBq, iv after 2 mins by gamma counting
# Type: ADME, organism-based
# Particulars: in vivo
Result Type: Drug uptake

See these solved cases before continuing.
In [3]: df
Out[3]:
                               smiles_entry         target   meas_value
0  CNc1ccc(/C=C/c2ccc(OCCOCCOCC[18F])nc2)cc1  Muscle tissue  1.06 % ID/g
1  CNc1ccc(/C=C/c2ccc(OCCOCCOCCOCCOCCOCC(COCCOCCOCCOCCOCCOc3ccc(/C=C/c4ccc(NC)cc4)cn3)OCC[18F])nc2)cc1  Muscle tissue   1.3 % ID/g
2  CNc1ccc(/C=C/c2ccc(OCCOCCOCCOCCOCCOCCOCC(COCCOCCOCCOCCOCCOCCOc3ccc(/C=C/c4ccc(NC)cc4)cn3)OCC[18F])nc2)cc1  Muscle tissue  0.65 % ID/g

(Q) Look up Drug uptake for this compound: CNc1ccc(/C=C/c2ccc(OCCOCCOCCOCCOCC(COCCOCCOCCOCCOc3ccc(/C=C/c4ccc(NC)cc4)cn3)OCC[18F])nc2)cc1
(A) 0.82 % ID/g
